Listed below: solubility (g/100 g solution) values for each entry.
Test: xn = mol fraction of the nth substance listed, in the solute-free solvent
Conditions: 308.15 K; x2 = 0.9
Form field (numeric): enter value without unit.

Field: example entries. Status: answers known.
S=c1[nH]ncs1 + CO + O | 23.4
OCCN(CCO)c1nc(N2CCCCC2)c2nc(N(CCO)CCO)nc(N3CCCCC3)c2n1 + CCO + O | 9.43
OCCN(CCO)c1nc(N2CCCCC2)c2nc(N(CCO)CCO)nc(N3CCCCC3)c2n1 + CO + O | 7.53
OCCN(CCO)c1nc(N2CCCCC2)c2nc(N(CCO)CCO)nc(N3CCCCC3)c2n1 + CC(C)O + O | 9.93
S=c1[nH]ncs1 + CC(C)=O + O | 30.4
S=c1[nH]ncs1 + CCCO + O | 15.3
Cc1ncc(C[n+]2csc(CCO)c2C)c(N)n1.O=[N+]([O-])[O-] + O + CC(C)O | 4.26
S=c1[nH]ncs1 + CCO + O | 19.1
Cc1ncc(C[n+]2csc(CCO)c2C)c(N)n1.O=[N+]([O-])[O-] + O + CO | 3.77

*Q* Please look up its solubility (g/100 g solution): Cc1ncc(C[n+]2csc(CCO)c2C)c(N)n1.O=[N+]([O-])[O-] + O + CC(C)=O
*A* 5
